Assay: LNP hydrodynamic size, polydispersity index and zeta potential by Zetasizer
Type: physicochemical
Details: FLuc mRNA-loaded LNP; Table 1
MEASURED ATTRIBUTE: LNP zeta potential (mV)

P: CCCCCCCCC(CCCCCCCC)OC(=O)CCCCCO[C@H]1CN(CCCCCO)C[C@H]1OCCCCCC(=O)OC(CCCCCCCC)CCCCCCCC
Q: CCCCCCCCC(CCCCCCCC)OC(=O)CCO[C@H]1CN(CCO)C[C@H]1OCCC(=O)OC(CCCCCCCC)CCCCCCCC
R: CCCCCCCCC(CCCCCCCC)OC(=O)CCCCCO[C@H]1CN(CCCCO)C[C@H]1OCCCCCC(=O)OC(CCCCCCCC)CCCCCCCC
Descending by LNP zeta potential (mV) please, for everything listed above. Please list each label once, in the requested order.
R, P, Q
(R: 12.45 mV, P: 7.83 mV, Q: −7.06 mV)
